- Experimental Target: T1, cynomolgus monkey CD8A on primary cynomolgus monkey CD8+ T cells (cynomolgus monkey, UniProt P01732 23-235 (human entry))
- T1 construct: also called Cyno CD8alpha
- T1 sequence (P01732 other isoform, or with tags, fused parts or gaps limits assumed): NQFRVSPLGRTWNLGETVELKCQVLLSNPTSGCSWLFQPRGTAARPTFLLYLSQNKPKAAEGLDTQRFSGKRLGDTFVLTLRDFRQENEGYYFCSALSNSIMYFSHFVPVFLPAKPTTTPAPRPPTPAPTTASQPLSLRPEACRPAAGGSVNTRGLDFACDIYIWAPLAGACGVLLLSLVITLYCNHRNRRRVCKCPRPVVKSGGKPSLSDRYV
- Protocol Notes: flow cytometry, cyno CD8+ T cells, 2 uM FN3
Endpoint Name: Cyno T-cell Binding 2 uM (MFI)

Examples from the recorded data:
Binder | Units Of Measure | Reported Measurement
P282FR9P1361_A5 (designed binder, FN3 domain) LPAPKNLVVSRVTEDSARLSWTAPDAAFDSFGILYYEPVDSGEAITLPVPGSERSYDLTGLKPGTEYWVVITGVKGGAPSTPLGAIFTT | MFI | 63500
P282FR9P1361_E12 (designed binder, FN3 domain) LPAPKNLVVSRVTEDSARLSWTAPDAAFDSLGITYWESPYAGEAIVLTVPGSERSYDLTGLKPGTEYGVFILGVKGGYPSAPLSAIFTT | MFI | 63500
P282ER9P1360_C1 (designed binder, FN3 domain) LPAPKNLVVSRVTEDSARLSWTTPDAAFDSFGILYYEPVDSGEAITLPVPGSERSYDLTGLKPGTEYWVVITGVKGGAPSTPLGAIFTT | MFI | 64800

[1] P282DR9P1359_F6 (designed binder, FN3 domain) LPAPKNLVVSRVTEDSARLSWTAPDAAFDSFDIAYPEWPTTGEAIVLTVPGSERSYDLTGLKPGTEYFVVIWGVKGGDHSAPLSAIFTT
[2] P283AR9P1362_D6 (designed binder, FN3 domain) LPAPKNLVVSRVTEDSARLSWAKRPGAFDSFLIQYQESEKVGEAIVLTVPGSERSYDLTGLKPGTEYTVSIYGVDVKYDIDSRPISSNPLSAIFTT
## Task Compare 1 and 2 by numeric Cyno T-cell Binding 2 uM (MFI) and name the larger one. Write the label of whichever entry you select.
## Result 1
(1: 73200 MFI, 2: 33500 MFI)
